PROTOCOL NOTES: modulators of CIT2-GFP expression in yeast, confirmation, S. cerevisiae, GFP fusion, cherry picks, mother/daughter gates (AID 2274)
CONDITION: S. cerevisiae CIT2-GFP strain, flow cytometry, 3 h; at 10 µM; stronger effect = higher value

{"MOLECULE": "Cc1cc(N2CCOCC2)n2nc(C)c(-c3ccccc3)c2n1", "GFP response, % of DMSO [%]": 98.8}
{"MOLECULE": "O=C(COC(=O)C1CCN(c2ccc(C(F)(F)F)cn2)CC1)Nc1cccc(F)c1", "GFP response, % of DMSO [%]": 104}
{"MOLECULE": "CCCc1[nH]nc2c1C(c1cccc(OC(=O)c3ccco3)c1)C(C#N)=C(N)O2 (stereo unspecified)", "GFP response, % of DMSO [%]": 104}
{"MOLECULE": "CCOC(=O)C(CC)Sc1ncnc2c1nnn2-c1ccc(F)cc1 (stereo unspecified)", "GFP response, % of DMSO [%]": 96.9}
{"MOLECULE": "COc1cccc(C(=O)C(C#N)=C(SC)SC)c1", "GFP response, % of DMSO [%]": 80.8}
{"MOLECULE": "Cc1cccn2c(N)c(-c3ccccc3)nc12", "GFP response, % of DMSO [%]": 104}
{"MOLECULE": "COc1ccc([N+](=O)[O-])c(S(=O)(=O)c2ccccc2)n1", "GFP response, % of DMSO [%]": 86}
{"MOLECULE": "CCc1ccc2c(c1)/C(=C/C(=O)c1cccs1)C(=O)N2", "GFP response, % of DMSO [%]": 91.3}
{"MOLECULE": "O=C(O)CSc1nnc(-c2ccncc2)n1CCc1ccccc1", "GFP response, % of DMSO [%]": 91.3}
{"MOLECULE": "CC(C)c1nnc(NC(=O)c2nc(S(=O)(=O)Cc3ccc(F)cc3)ncc2Cl)s1", "GFP response, % of DMSO [%]": 99.3}
{"MOLECULE": "CCCC(=O)Nc1ccc(C(=O)/C=C/c2ccc(SC)cc2)cc1", "GFP response, % of DMSO [%]": 95.2}

All values here come from PubChem BioAssay.
